The following molecules are shown together with reported minimal effective concentration values.
Tested on: NIH3T3^MEN2A(C634R) cells
Assay: Reversal of morphologically transformed phenotype, contrast phase microscopy, 24 h
Assay type: cell-based, murine
Conditions: Mus musculus, NIH3T3MEN2A, 24 h treatment, read-out: Morphology a 24 h: concentration from which reversal was observed

// worked examples, minimal effective concentration included
                                smiles_code                measured_on                 observation_type   result
0  COc1ccc(OC(=O)Oc2ccc(/C=C3/C(=O)Nc4cc(OC)c(OC)cc43)cc2)cc1  NIH3T3^MEN2A(C634R) cells  minimal effective concentration  ≥ 10 µM
1  COc1cc2c(cc1OC)/C(=C\c1ccc(OC(C)=O)cc1)C(=O)N2  NIH3T3^MEN2A(C634R) cells  minimal effective concentration   ≥ 5 µM
2  COc1cc2c(cc1OC)/C(=C\c1ccc(O)cc1)C(=O)N2  NIH3T3^MEN2A(C634R) cells  minimal effective concentration   ≥ 6 µM
3  COc1cc2c(cc1OC)/C(=C\c1ccc(OP(=O)(O)O)cc1)C(=O)N2  NIH3T3^MEN2A(C634R) cells  minimal effective concentration  ≥ 10 µM
4  COc1cc2c(cc1OC)/C(=C\c1ccc(OC(=O)N3CCN(C)CC3)cc1)C(=O)N2  NIH3T3^MEN2A(C634R) cells  minimal effective concentration  ≥ 10 µM

Per the records, this molecule ( `CCCCCNC(=O)Oc1ccc(/C=C2/C(=O)Nc3cc(OC)c(OC)cc32)cc1` ) has minimal effective concentration equal to ≥ 5 µM

Per the records, this molecule ( `CCOP(=O)(OCC)Oc1ccc(/C=C2/C(=O)Nc3cc(OC)c(OC)cc32)cc1` ) has minimal effective concentration equal to ≥ 5 µM

Per the records, this molecule ( `COc1cc2c(cc1OC)/C(=C\c1ccc(OC(=O)N3CCN(CCOCCO)CC3)cc1)C(=O)N2` ) has minimal effective concentration equal to ≥ 10 µM

Per the records, this molecule ( `COc1cc2c(cc1OC)/C(=C\c1ccc(OCCO)cc1)C(=O)N2` ) has minimal effective concentration equal to ≥ 10 µM

Per the records, this molecule ( `COc1cc2c(cc1OC)/C(=C\c1ccc(OC(=O)N3CCC(N4CCCCC4)CC3)cc1)C(=O)N2` ) has minimal effective concentration equal to ≥ 5 µM

----------
The following molecules are shown together with reported melting point values.

Per the records, this molecule ( `COc1cc2c(cc1OC)/C(=C\c1ccc(OC(=O)c3cccn3C)cc1)C(=O)N2` ) has melting point equal to 165 to 167 °C

Per the records, this molecule ( `COc1cc2c(cc1OC)/C(=C\c1ccc(OC(=O)N3CCN(CCO)CC3)cc1)C(=O)N2` ) has melting point equal to 217 to 220 °C

Per the records, this molecule ( `COc1cc2c(cc1OC)/C(=C\c1ccc(OC(=O)N(CCO)CCO)cc1)C(=O)N2` ) has melting point equal to 183 to 185 °C

Per the records, this molecule ( `COCCOCCOCC(=O)Oc1ccc(/C=C2/C(=O)Nc3cc(OC)c(OC)cc32)cc1` ) has melting point equal to 117 to 119 °C

Per the records, this molecule ( `COc1cc2c(cc1OC)/C(=C\c1ccc(OC(=O)c3cnccn3)cc1)C(=O)N2` ) has melting point equal to > 250 °C

Per the records, this molecule ( `COc1cc2c(cc1OC)/C(=C\c1ccc(OC(=O)CCCCNC(=O)OC(C)(C)C)cc1)C(=O)N2` ) has melting point equal to 101 to 103 °C

Per the records, this molecule ( `COc1ccc(NC(=O)Oc2ccc(/C=C3/C(=O)Nc4cc(OC)c(OC)cc43)cc2)cc1` ) has melting point equal to 189 to 191 °C

Per the records, this molecule ( `COc1ccc(OC(=O)Oc2ccc(/C=C3/C(=O)Nc4cc(OC)c(OC)cc43)cc2)cc1` ) has melting point equal to 165 to 167 °C

Per the records, this molecule ( `CCCCCCNC(=O)Oc1ccc(/C=C2/C(=O)Nc3cc(OC)c(OC)cc32)cc1` ) has melting point equal to 168 to 170 °C
